Tested on: 186277-243-T-J2-PDC complex spheroid viability
Assay: Anticancer human tumor 186277-243-T-J2-PDC patient-derived colon adenocarcinoma cell line growth inhibition [GQUAD]
Conditions: second compound 0.316 µM; first compound 0.00999 µM; stronger effect = lower value
Would you kindly list viability, T/C for each of these compounds?
Output spec: scalar in %, unitless text.

For the record CCc1c2c(nc3ccc(O)cc13)-c1cc3c(c(=O)n1C2)COC(=O)[C@]3(O)CC + Cc1cnc(CNC(=O)c2c(=O)c3ccc(N4CCCN(C)CC4)nc3n3c2sc2ccccc23)cn1 , what value of viability, T/C is listed for 186277-243-T-J2-PDC complex spheroid viability? 40.9

For the record CCc1c2c(nc3ccc(O)cc13)-c1cc3c(c(=O)n1C2)COC(=O)[C@]3(O)CC + Cc1[nH]c2ccc(F)cc2c1-c1nc2c3cccnc3c3ncccc3c2[nH]1 , what value of viability, T/C is listed for 186277-243-T-J2-PDC complex spheroid viability? 54.2

For the record CCc1c2c(nc3ccc(O)cc13)-c1cc3c(c(=O)n1C2)COC(=O)[C@]3(O)CC + CN(C)c1ccc(Nc2c3ccc(NC(=O)CCN4CCCC4)cc3nc3cc(NC(=O)CCN4CCCC4)ccc23)cc1 , what value of viability, T/C is listed for 186277-243-T-J2-PDC complex spheroid viability? 36

For the record Cn1ncnc1[C@H]1c2n[nH]c(=O)c3cc(F)cc(c23)N[C@@H]1c1ccc(F)cc1 + CN(C)c1ccc(Nc2c3ccc(NC(=O)CCN4CCCC4)cc3nc3cc(NC(=O)CCN4CCCC4)ccc23)cc1 , what value of viability, T/C is listed for 186277-243-T-J2-PDC complex spheroid viability? 102

For the record Cc1[nH]c2ccccc2c1CCNCc1ccc(/C=C/C(=O)NO)cc1 + Cc1cnc(CNC(=O)c2c(=O)c3ccc(N4CCCN(C)CC4)nc3n3c2sc2ccccc23)cn1 , what value of viability, T/C is listed for 186277-243-T-J2-PDC complex spheroid viability? 49.2

For the record Cc1[nH]c2ccccc2c1CCNCc1ccc(/C=C/C(=O)NO)cc1 + CN(C)c1ccc(Nc2c3ccc(NC(=O)CCN4CCCC4)cc3nc3cc(NC(=O)CCN4CCCC4)ccc23)cc1 , what value of viability, T/C is listed for 186277-243-T-J2-PDC complex spheroid viability? 91.7

----------
Would you kindly list viability, T/C for each of these compounds?
Test system: 186277-243-T-J2-PDC complex spheroid viability
Test: Anticancer human tumor 186277-243-T-J2-PDC cell line growth inhibition [GQUAD];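 further: spheroids exposed to drugs for 7 days; 100% = DMSO vehicle control viability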
Details: second compound 0.0316 µM; first compound 0.1 µM; stronger effect = lower value
Excerpt: DNA G-quadruplex Stabilizer Agents in Combinations in Complex Spheroids A high-throughput screen of multi-cell type tumor spheroids was designed to identify active combinations of DNA G-quadruplex stabilizer agents and targeted small molecules. […] Compounds. […] If the clinical Cmax for an agent had not been determined, the highest concentration tested was 10 microM. […]
Output spec: scalar in %, unitless text.

For the record COc1cc(C2c3cc4c(cc3C(OC3OC5COC(C)OC5C(O)C3O)C3COC(=O)C23)OCO4)cc(OC)c1O (stereo not given) + Cc1cnc(CNC(=O)c2c(=O)c3ccc(N4CCCN(C)CC4)nc3n3c2sc2ccccc23)cn1 , what value of viability, T/C is listed for 186277-243-T-J2-PDC complex spheroid viability? 93.9

For the record CC1COCCN1c1cc(-c2ccnn2C)c2ccnc(-c3ccn[nH]3)c2n1 (stereo not given) + Cc1[nH]c2ccc(F)cc2c1-c1nc2c3cccnc3c3ncccc3c2[nH]1 , what value of viability, T/C is listed for 186277-243-T-J2-PDC complex spheroid viability? 15

For the record CCCS(=O)(=O)Nc1ccc(F)c(C(=O)c2c[nH]c3ncc(-c4ccc(Cl)cc4)cc23)c1F + Cc1cnc(CNC(=O)c2c(=O)c3ccc(N4CCCN(C)CC4)nc3n3c2sc2ccccc23)cn1 , what value of viability, T/C is listed for 186277-243-T-J2-PDC complex spheroid viability? 102

For the record CCCS(=O)(=O)Nc1ccc(F)c(C(=O)c2c[nH]c3ncc(-c4ccc(Cl)cc4)cc23)c1F + CN(C)c1ccc(Nc2c3ccc(NC(=O)CCN4CCCC4)cc3nc3cc(NC(=O)CCN4CCCC4)ccc23)cc1 , what value of viability, T/C is listed for 186277-243-T-J2-PDC complex spheroid viability? 101

For the record COc1cccc2c1C(=O)c1c(O)c3c(c(O)c1C2=O)CC(O)(C(=O)CO)CC3OC1CC(N)C(O)C(C)O1 (stereo not given) + CN(C)c1ccc(Nc2c3ccc(NC(=O)CCN4CCCC4)cc3nc3cc(NC(=O)CCN4CCCC4)ccc23)cc1 , what value of viability, T/C is listed for 186277-243-T-J2-PDC complex spheroid viability? 94.3

Cited source for all entries: PubChem BioAssay AID2060512
